B1: library; a variant is named by its letters at N, in order (parent)
chain: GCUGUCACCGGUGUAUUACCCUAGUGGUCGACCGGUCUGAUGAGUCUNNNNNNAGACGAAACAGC

# Variants of: B1
# experiment-notes: FACS-Seq fitted mean relative fluorescence mCherry/BFP without ligand (log10 relative fluorescence); ligand: hypoxanthine (xanthine aptamer); higher = higher reporter protein expression
# setup-conditions: HEK293T, ligand present: no
Kind request: treat 0.4 as inclusive, so FACS-Seq fitted mean (log10) at 0.4 or higher is Y, anything lower is N.

INPUT: Assess whether reported FACS-Seq fitted mean (log10) for "AUUCGG" sits at 0.4 or higher.
OUTPUT: N
